Every entry's value here was drawn from patent US8247211B2.

Test system: Staphylococcus sp.
Assay: In vitro antibacterial evaluation: minimum inhibitory concentration (MIC), broth dilution method
Assay type: cell-based
Settings: strain GC 1131
ENDPOINT_NAME: MIC Staphylococcus aureus (GC 1131) (µg/mL)
All answers are understood in µg/mL, so give the number only.

Below are worked cases with known answers.
[[record]]
compound = "N=C1NCC(C(O)C2NC(=O)C(Cc3ccc(OC4OC(CO)C(OC5OC(CO)C(O)C6OC7(OC56)C5CC6CC(C5)CC7C6)C(O)C4O)cc3)NC(=O)C(CC3CCCCC3)NC(=O)CNC(=O)C(CO)NC(=O)C(C(O)C3CNC(=N)N3C3OC(CO)C(O)C(O)C3O)NC2=O)N1 (centres unmarked) [Example 106a]"
assay_system = "Staphylococcus sp."
unit_info = "µg/mL"
measurement = 2

[[record]]
compound = "CC(c1ccccc1)C1NC(=O)CNC(=O)C(CO)NC(=O)C(C(O)C2CN(c3ncccn3)C(=N)N2C2OC(CO)C(O)C(O)C2O)NC(=O)C(C(O)C2CNC(=Nc3ncccn3)N2)NC(=O)C(Cc2ccc(OC3OC(CO)C(OC4OC5COC6(OC5C(O)C4O)C4CC5CC(C4)CC6C5)C(O)C3O)cc2)NC1=O (centres unmarked)"
assay_system = "Staphylococcus sp."
unit_info = "µg/mL"
measurement = 32

[[record]]
compound = "COc1cccc(C2OCC3OC(OC4C(CO)OC(Oc5ccc(CC6NC(=O)C(C(C)c7ccccc7)NC(=O)CNC(=O)C(CO)NC(=O)C(C(O)C7CNC(=N)N7C7OC(CO)C(O)C(O)C7O)NC(=O)C(C(O)C7CNC(=N)N7)NC6=O)cc5)C(O)C4O)C(O)C(O)C3O2)c1 (centres unmarked)"
assay_system = "Staphylococcus sp."
unit_info = "µg/mL"
measurement = 2

[[record]]
compound = "CC(c1ccccc1)C1NC(=O)CNC(=O)C(CO)NC(=O)C(C(O)C2CNC(=N)N2C2OC(CO)C(O)C(O)C2O)NC(=O)C(C(O)C2CNC(=N)N2)NC(=O)C(Cc2ccc(OC3OC(CO)C(OC4OC5COC(c6ccc(C(=O)c7cc(I)c(I)c(I)c7)cc6)OC5C(O)C4O)C(O)C3O)cc2)NC1=O (centres unmarked)"
assay_system = "Staphylococcus sp."
unit_info = "µg/mL"
measurement = 64

[[record]]
compound = "COc1ccc2cc(C3OCC4OC(OC5C(CO)OC(Oc6ccc(CC7NC(=O)C(C(C)c8ccccc8)NC(=O)CNC(=O)C(CO)NC(=O)C(CC8CNC(=N)N8C8OC(CO)C(O)C(O)C8O)NC(=O)C(CC8CNC(=N)N8)NC7=O)cc6)C(O)C5O)C(O)C(O)C4O3)ccc2c1 (centres unmarked)"
assay_system = "Staphylococcus sp."
unit_info = "µg/mL"
measurement = 16


Recorded MIC Staphylococcus aureus (GC 1131) of CC(c1ccccc1)C1NC(=O)CNC(=O)C(CO)NC(=O)C(C(O)C2CNC(=N)N2C2OC(CO)C(O)C(O)C2O)NC(=O)C(C(O)C2CNC(=N)N2)NC(=O)C(Cc2ccc(OC3OC(CO)C(OC4OC5COC6(CCCCC6)OC5C(O)C4O)C(O)C3O)cc2)NC1=O (centres unmarked) , please. 2

Recorded MIC Staphylococcus aureus (GC 1131) of CC(C)=CCCC(C)C1OCC2OC(OC3C(CO)OC(Oc4ccc(CC5NC(=O)C(C(C)c6ccccc6)NC(=O)CNC(=O)C(CO)NC(=O)C(C(O)C6CNC(=N)N6C6OC(CO)C(O)C(O)C6O)NC(=O)C(C(O)C6CNC(=N)N6)NC5=O)cc4)C(O)C3O)C(O)C(O)C2O1 (centres unmarked) , please. 32

Recorded MIC Staphylococcus aureus (GC 1131) of CC(C)CC(=O)OC1C(O)C(OC2C(CO)OC(Oc3ccc(CC4NC(=O)C(C(C)c5ccccc5)NC(=O)CNC(=O)C(CO)NC(=O)C(C(O)C5CNC(=N)N5C5OC(CO)C(O)C(O)C5O)NC(=O)C(C(O)C5CNC(=N)N5)NC4=O)cc3)C(O)C2O)OC2COC3(OC21)C1CC2CC(C1)CC3C2 (centres unmarked) , please. 4

Recorded MIC Staphylococcus aureus (GC 1131) of CC(c1ccccc1)C1NC(=O)CNC(=O)C(CO)NC(=O)C(C(O)C2CNC(=N)N2C2OC(CO)C(O)C(O)C2O)NC(=O)C(C(O)C2CNC(=N)N2)NC(=O)C(Cc2ccc(OC3OC(CO)C(OC4OC(COC(=O)OCc5ccccc5)C(O)C(O)C4O)C(O)C3O)cc2)NC1=O (centres unmarked) [Example 101a] , please. 4

Recorded MIC Staphylococcus aureus (GC 1131) of CC(c1ccccc1)C1NC(=O)CNC(=O)C(CO)NC(=O)C(C(O)C2CNC(=N)N2C2OC(CO)C(O)C(O)C2O)NC(=O)C(C(O)C2CNC(=N)N2)NC(=O)C(Cc2ccc(OC3OC(CO)C(OC4OC(COC(=O)CCC5CCCC5)C(O)C(O)C4O)C(O)C3O)cc2)NC1=O (centres unmarked) [Example 100c] , please. 1

Recorded MIC Staphylococcus aureus (GC 1131) of CC(c1ccccc1)C1NC(=O)CNC(=O)C(CO)NC(=O)C(C(O)C2CNC(=N)N2C2OC(CO)C(O)C(O)C2O)NC(=O)C(C(O)C2CNC(=N)N2)NC(=O)C(Cc2ccc(OC3OC(CO)C(OC4OC5COC(C6CC=CCC6)OC5C(O)C4O)C(O)C3O)cc2)NC1=O (centres unmarked) , please. 1

Recorded MIC Staphylococcus aureus (GC 1131) of CC(c1ccc(Cl)cc1)C1NC(=O)CNC(=O)C(CO)NC(=O)C(C(O)C2CNC(=N)N2C2OC(CO)C(O)C(O)C2O)NC(=O)C(C(O)C2CNC(=N)N2)NC(=O)C(Cc2ccc(OC3OC(CO)C(OC4OC5COC(C6CCCCC6)OC5C(O)C4O)C(O)C3O)cc2)NC1=O (centres unmarked) , please. 1

Recorded MIC Staphylococcus aureus (GC 1131) of CC(c1ccccc1)C1NC(=O)CNC(=O)C(CO)NC(=O)C(C(O)C2CNC(=N)N2C2OC(CO)C(O)C(O)C2O)NC(=O)C(C(O)C2CNC(=N)N2)NC(=O)C(Cc2ccc(OC3OC(CO)C(OC4OC5COC(Cc6ccc(F)cc6)OC5C(O)C4O)C(O)C3O)cc2)NC1=O (centres unmarked) , please. 2

Recorded MIC Staphylococcus aureus (GC 1131) of CC(c1ccccc1)C1NC(=O)CNC(=O)C(CO)NC(=O)C(C(O)C2CNC(=N)N2C2OC(CO)C(O)C(O)C2O)NC(=O)C(C(O)C2CNC(=N)N2)NC(=O)C(Cc2ccc(OC3OC(CO)C(OC4OC5COC6(CCCCCCCCCCCC6)OC5C(O)C4O)C(O)C3O)cc2)NC1=O (centres unmarked) , please. 32
